# credit: patent US20210196796A1

# TGT: T1, orthogonal hCD122 receptor (hoRb), hCD122 with H133D and Y134F (human, UniProt P14784 27-550)
# T1 sequence: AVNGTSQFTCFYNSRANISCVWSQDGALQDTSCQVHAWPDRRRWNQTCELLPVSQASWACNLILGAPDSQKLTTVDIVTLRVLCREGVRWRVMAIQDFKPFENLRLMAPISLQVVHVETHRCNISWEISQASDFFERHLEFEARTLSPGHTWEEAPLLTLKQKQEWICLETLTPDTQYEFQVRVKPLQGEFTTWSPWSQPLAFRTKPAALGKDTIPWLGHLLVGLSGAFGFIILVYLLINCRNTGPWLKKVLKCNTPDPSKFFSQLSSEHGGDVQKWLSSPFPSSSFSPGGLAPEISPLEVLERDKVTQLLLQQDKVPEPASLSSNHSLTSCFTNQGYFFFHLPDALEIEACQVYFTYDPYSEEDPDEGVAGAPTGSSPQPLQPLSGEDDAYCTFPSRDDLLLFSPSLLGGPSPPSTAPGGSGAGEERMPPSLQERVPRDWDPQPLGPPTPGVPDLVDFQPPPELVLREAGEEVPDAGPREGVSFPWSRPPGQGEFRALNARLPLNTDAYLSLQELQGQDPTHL
# PROTOCOL SUMMARY: cell-based or functional assay; also: reference of the scale not given here
METRIC: Relative Proliferation Fold Change 3F8 1:10 (fold)

(A) I86V, SQVLKA (ligand) APTSSSTKKTQLQLSQLLVLLKAILNGINNYKNPKLTRMLTFKFYMPKKATELKHLQCLEEELKPLEEVLNLAQSKNFHLRPRDLVSNINVIVLELKGSETTFMCEYADETATIVEFLNRWITFCQSIISTLT
(B) ΔQ13, SQVLKA (ligand) APTSSSTKKTQLLSQLLVLLKAILNGINNYKNPKLTRMLTFKFYMPKKATELKHLQCLEEELKPLEEVLNLAQSKNFHLRPRDLISNINVIVLELKGSETTFMCEYADETATIVEFLNRWITFCQSIISTLT
(Q) Sort A and B by Relative Proliferation Fold Change 3F8 1:10 descending and give the first. Output the label that corresponds to your choice.
(A) B
